systemUnderTest: Cytochrome P450 3A4 (Homo sapiens, UniProt P08684)
Sequence (P08684 whole entry): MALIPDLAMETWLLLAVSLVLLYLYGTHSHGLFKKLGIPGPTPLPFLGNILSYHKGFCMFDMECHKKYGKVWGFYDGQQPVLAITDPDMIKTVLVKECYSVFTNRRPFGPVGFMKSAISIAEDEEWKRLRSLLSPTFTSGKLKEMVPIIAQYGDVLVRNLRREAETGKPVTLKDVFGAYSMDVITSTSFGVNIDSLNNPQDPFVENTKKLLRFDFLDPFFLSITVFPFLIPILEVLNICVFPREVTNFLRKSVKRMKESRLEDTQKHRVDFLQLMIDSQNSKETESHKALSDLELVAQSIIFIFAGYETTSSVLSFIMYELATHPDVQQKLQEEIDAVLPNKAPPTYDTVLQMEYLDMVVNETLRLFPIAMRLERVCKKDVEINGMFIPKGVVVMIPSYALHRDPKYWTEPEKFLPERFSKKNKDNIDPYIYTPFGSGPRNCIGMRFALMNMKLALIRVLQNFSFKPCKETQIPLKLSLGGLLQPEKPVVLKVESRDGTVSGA
experiment: Inhibition of CYP3A4 in human liver microsomes using testosterone as substrate upto 10 uM after 5 mins in presence of NADPH by LC-MS/MS analysis
Format: ADME
pIC50: −log10 of the molar value.
measurementKind: pIC50

Task item: Quick check: pIC50 of CN(C/C=C/c1ccc(-c2ccccc2)cc1)Cc1coc2ccccc12.Cl ?
Reply: < 5.00

###

experiment: Inhibition of CrtN in methicillin-resistant Staphylococcus aureus LRSA205 assessed as reduction in staphyloxanthin levels after 48 hrs by spectrophotometric method-based pigment inhibition assay
measurementKind: pIC50
As a rule, pIC50 stands for the negative log10 of the concentration, concentration in M.

Task item: Quick check: pIC50 of CN(C/C=C/c1ccc(-c2ccccc2)cc1)Cc1coc2ccccc12.Cl ?
Reply: 7.98

###

experiment: Tmax in mouse at 10 mg/kg, po administered as single dose by LC-MS/MS analysis
Type: ADME, organism-based
conditionDescription: in vivo
measurementKind: Tmax (h)
Numbers only here, please. The scale is h.

Task item: Quick check: Tmax of CN(C/C=C/c1ccc(-c2ccccc2)cc1)Cc1coc2ccccc12.Cl ?
Reply: 2

###

systemUnderTest: 4,4'-diapophytoene desaturase (4,4'-diaponeurosporene-forming) (Staphylococcus aureus (strain Newman), UniProt O07855)
Sequence (O07855 whole entry): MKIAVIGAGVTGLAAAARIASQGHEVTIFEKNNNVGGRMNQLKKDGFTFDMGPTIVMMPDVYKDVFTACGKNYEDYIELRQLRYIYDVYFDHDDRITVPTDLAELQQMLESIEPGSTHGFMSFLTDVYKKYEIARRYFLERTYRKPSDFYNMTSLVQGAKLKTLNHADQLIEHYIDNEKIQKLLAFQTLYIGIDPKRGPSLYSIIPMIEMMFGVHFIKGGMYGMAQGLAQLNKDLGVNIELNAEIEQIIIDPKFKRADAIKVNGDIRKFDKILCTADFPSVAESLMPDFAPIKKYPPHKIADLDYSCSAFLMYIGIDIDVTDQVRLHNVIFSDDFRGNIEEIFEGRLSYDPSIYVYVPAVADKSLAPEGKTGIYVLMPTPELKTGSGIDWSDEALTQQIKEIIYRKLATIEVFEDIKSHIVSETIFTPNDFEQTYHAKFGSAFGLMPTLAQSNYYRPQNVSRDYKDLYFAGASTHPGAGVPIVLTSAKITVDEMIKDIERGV
experiment: Inhibition of CrtN in Staphylococcus aureus Newman assessed as reduction in staphyloxanthin levels after 48 hrs by spectrophotometric method-based pigment inhibition assay
Set-up: species or system Staphylococcus aureus subsp. aureus str. Newman
Property: IC50; scope: individual compounds
Numbers only here, please. The scale is nM.

smilesRepr: Cc1ccc(/C=C/CN(C)Cc2coc3ccccc23)cc1
obsValue: 9.9

smilesRepr: CN(C/C=C/c1ccc(Cl)cc1)Cc1cccc2cc[nH]c12
obsValue: 143

smilesRepr: CN(C/C=C/c1ccccc1Cl)Cc1coc2ccccc12
obsValue: 360

smilesRepr: CN(C/C=C/c1ccc(Cl)cc1Cl)Cc1coc2ccccc12
obsValue: 6.2

Now for a further compound.
Task item: Quick check: IC50 of CN(C/C=C/c1ccc(-c2ccccc2)cc1)Cc1cccc2cc[nH]c12.Cl ?
Reply: 3.3

###

experiment: Cmax in Sprague-Dawley rat at 10 mg/kg, po administered as single dose by LC-MS/MS analysis
Format: ADME, organism-based
Set-up: dose 10 mg/kg, route oral
conditionDescription: in vivo
measurementKind: Cmax
Form entry: enter the amount, then its unit.

Task item: Quick check: Cmax of CN(C/C=C/c1ccc(-c2ccccc2)cc1)Cc1coc2ccccc12.Cl ?
Reply: 0.213 µg/mL

###

systemUnderTest: 4,4'-diapophytoene desaturase (4,4'-diaponeurosporene-forming) (Staphylococcus aureus (strain Mu50 / ATCC 700699))
experiment: Inhibition of CrtN in methicillin-resistant Staphylococcus aureus Mu50 assessed as reduction in staphyloxanthin levels after 48 hrs by spectrophotometric method-based pigment inhibition assay
Property: pIC50; scope: individual compounds
As a rule, pIC50 stands for the negative log10 of the concentration, concentration in M.

smilesRepr: CN(C/C=C/c1ccc(-c2ccccc2)cc1)Cc1cccc2cc[nH]c12.Cl
pIC50: 9.40
//
smilesRepr: CN(C/C=C/c1ccc(C(F)(F)F)cc1)Cc1cccc2ccoc12.Cl
pIC50: 9.40

Task item: Quick check: pIC50 of CN(C/C=C/c1ccc(-c2ccccc2)cc1)Cc1coc2ccccc12.Cl ?
Reply: 9.10

###

systemUnderTest: 4,4'-diapophytoene desaturase (4,4'-diaponeurosporene-forming) (Staphylococcus aureus (strain Newman))
experiment: Inhibition of CrtN in Staphylococcus aureus Newman assessed as reduction in staphyloxanthin levels after 48 hrs by spectrophotometric method-based pigment inhibition assay
Design: species or system Staphylococcus aureus subsp. aureus str. Newman
Property: log10(IC50); scope: individual compounds
Scale type: logarithmic (base 10). Underlying IC50 unit: nM.

Would you please look over these solved cases?
smilesRepr: CN(C/C=C/c1ccc(-c2ccccc2)cc1)Cc1coc2ccccc12.Cl
log10(IC50): 0.30
--
smilesRepr: CN(C/C=C/c1ccc(Br)cc1)Cc1cccc2cc[nH]c12
log10(IC50): 1.92
--
smilesRepr: CN(C/C=C/c1ccc(C(F)(F)F)cc1)Cc1ccc2[nH]ccc2c1
log10(IC50): 1.80
--
smilesRepr: COc1ccc(/C=C/CN(C)Cc2cccc3cc[nH]c23)cc1
log10(IC50): 2.22

Task item: Quick check: log10(IC50) of COC(=O)c1ccc(/C=C/CN(C)Cc2cccc3cc[nH]c23)cc1 ?
Reply: 1.94

###

Property: IC50; scope: individual compounds
systemUnderTest: 4,4'-diapophytoene desaturase (4,4'-diaponeurosporene-forming) (Staphylococcus aureus (strain Newman))
Sequence (O07855 whole entry): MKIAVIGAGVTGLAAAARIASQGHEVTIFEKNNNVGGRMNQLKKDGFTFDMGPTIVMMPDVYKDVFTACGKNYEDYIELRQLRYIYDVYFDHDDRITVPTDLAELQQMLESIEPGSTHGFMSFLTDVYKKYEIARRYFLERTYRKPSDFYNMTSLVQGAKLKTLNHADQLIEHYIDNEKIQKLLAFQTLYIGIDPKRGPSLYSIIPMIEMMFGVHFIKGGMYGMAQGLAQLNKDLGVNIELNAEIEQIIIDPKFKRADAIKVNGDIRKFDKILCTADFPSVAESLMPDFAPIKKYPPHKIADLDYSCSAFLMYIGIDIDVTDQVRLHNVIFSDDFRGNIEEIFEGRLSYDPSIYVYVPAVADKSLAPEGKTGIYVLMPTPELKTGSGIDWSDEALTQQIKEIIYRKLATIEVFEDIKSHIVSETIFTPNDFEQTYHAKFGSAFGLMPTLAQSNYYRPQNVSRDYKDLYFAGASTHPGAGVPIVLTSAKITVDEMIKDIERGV
experiment: Inhibition of CrtN in Staphylococcus aureus Newman assessed as reduction in staphyloxanthin levels after 48 hrs by spectrophotometric method-based pigment inhibition assay
Design: species or system Staphylococcus aureus subsp. aureus str. Newman

Task item: Quick check: IC50 of CN(C/C=C/c1ccccc1Cl)Cc1cccc2cc[nH]c12 ?
Reply: > 1000 nM

Task item: Quick check: IC50 of CN(C/C=C/C=C/c1ccc(-c2ccccc2)cc1)Cc1coc2ccccc12 ?
Reply: > 1000 nM

Task item: Quick check: IC50 of CN(C/C=C/c1ccccc1)Cc1coc2ccccc12 ?
Reply: > 1000 nM

###

systemUnderTest: 4,4'-diapophytoene desaturase (4,4'-diaponeurosporene-forming) (Staphylococcus aureus (strain Newman))
experiment: Inhibition of CrtN in Staphylococcus aureus Newman assessed as reduction in staphyloxanthin levels after 48 hrs by spectrophotometric method-based pigment inhibition assay
Set-up: species or system Staphylococcus aureus subsp. aureus str. Newman
pIC50: −log10 of the molar value.
Classification field: MET = pIC50 at or over 7; NOT MET = pIC50 under 7.

// known answers, use as guide
smilesRepr: Cc1ccccc1/C=C/CN(C)Cc1cccc2cc[nH]c12
answerLabel: NOT MET

smilesRepr: CN(CCCc1ccc(-c2ccccc2)cc1)Cc1coc2ccccc12
answerLabel: NOT MET

smilesRepr: CN(C/C=C/c1ccccc1C(F)(F)F)Cc1cccc2cc[nH]c12
answerLabel: NOT MET

smilesRepr: COC(=O)c1ccc(/C=C/CN(C)Cc2coc3ccccc23)cc1
answerLabel: MET

smilesRepr: CN(C/C=C/c1ccc(C(F)(F)F)cc1)Cc1cc2ccccc2[nH]1
answerLabel: NOT MET

Task item: Assess whether reported pIC50 for CN(C/C=C/c1cccc2ccccc12)Cc1coc2ccccc12 sits at 7 or higher.
Reply: NOT MET

Task item: Assess whether reported pIC50 for CN(C/C=C/c1ccc(C(F)(F)F)c(F)c1)Cc1cccc2cc[nH]c12 sits at 7 or higher.
Reply: NOT MET

Task item: Assess whether reported pIC50 for CN(C/C=C/C1CCCC1)Cc1coc2ccccc12 sits at 7 or higher.
Reply: NOT MET

Task item: Assess whether reported pIC50 for CN(C/C=C/c1ccc(C(F)(F)F)cc1F)Cc1cccc2cc[nH]c12 sits at 7 or higher.
Reply: MET
